STUDY_SYSTEM: Recombinant protein Claudin 18.2
Sequence (chain, as listed by the source limits assumed, form in doubt): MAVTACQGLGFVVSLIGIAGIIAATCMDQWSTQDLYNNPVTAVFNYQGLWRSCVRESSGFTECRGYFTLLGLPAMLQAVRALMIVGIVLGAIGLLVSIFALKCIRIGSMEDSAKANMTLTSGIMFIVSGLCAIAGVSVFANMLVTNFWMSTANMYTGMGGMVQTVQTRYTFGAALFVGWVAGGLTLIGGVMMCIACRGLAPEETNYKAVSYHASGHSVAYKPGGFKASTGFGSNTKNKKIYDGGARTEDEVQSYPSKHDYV
ASSAY_SUMMARY: ELISA on plate-coated recombinant Claudin 18.2, OD450; Kd table under the graph, no unit in the table, unit from the x axis log[antibody] nM
Provide the reported Kd of each item.
Kindly provide the numeric value in nM only, without the unit symbol.

Task: State its Kd for this binder: Anti-CLDN 18.2-5C9ob (humanized antibody h5C9ob) (antibody, human IgG1, V domains shown) VH: EVQLVESGGGLVQPGGSLRLSCAVSGYTFSMNWVRQAPGKGLEWVAWINMYTGEPTYADDFKGRFTISRDDSKNTLYLQMNSLRAEDTAVYYCARLYNGNSLDYWGQGTLVTVSS VL: DIQMTQSPSSLSASVGDRVTITCKSSQSLLNSGNQKSYLTWYQQKPGKAPKLLIYWASTLESGVPSRFSGSGSGTDYTLTISSLQPEDFATYYCQNAYFFPFTFGQGTKVEIK
Output: 0.0863

Task: State its Kd for this binder: h5C9oa (antibody, V domains shown) VH: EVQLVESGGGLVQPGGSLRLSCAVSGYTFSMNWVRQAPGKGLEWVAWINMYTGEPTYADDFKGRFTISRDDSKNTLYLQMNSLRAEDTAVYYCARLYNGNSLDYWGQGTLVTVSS VL: DIQMTQSPSSLSASVGDRVTITCKSSQSLLNSGNQKSYLTWYQQKPGKAPKLLIYWASTLESGVPSRFSGSGSGTDYTLTISSLQPEDFATYYCQNAYAFPFTFGQGTKVEIK
Output: 0.0894

Task: State its Kd for this binder: h5C9oj (antibody, V domains shown) VH: EVQLVESGGGLVQPGGSLRLSCAVSGYTFSMNWVRQAPGKGLEWVAWINMYTGEPTYADDFKGRFTISRDDSKNTLYLQMNSLRAEDTAVYYCARLYNGNALDYWGQGTLVTVSS VL: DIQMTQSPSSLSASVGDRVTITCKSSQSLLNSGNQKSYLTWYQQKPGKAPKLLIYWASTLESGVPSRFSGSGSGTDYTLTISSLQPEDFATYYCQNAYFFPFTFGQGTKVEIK
Output: 0.0777

Task: State its Kd for this binder: h5C9oe (antibody, V domains shown) VH: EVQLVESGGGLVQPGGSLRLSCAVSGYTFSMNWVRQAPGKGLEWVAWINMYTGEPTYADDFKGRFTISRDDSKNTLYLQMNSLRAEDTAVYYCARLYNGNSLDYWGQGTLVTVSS VL: DIQMTQSPSSLSASVGDRVTITCKSSQSLLNSGNQKSYLTWYQQKPGKAPKLLIYWASTLESGVPSRFSGSGSGTDYTLTISSLQPEDFATYYCQNAYRFPFTFGQGTKVEIK
Output: 0.0878

Task: State its Kd for this binder: h5C9og (antibody, V domains shown) VH: EVQLVESGGGLVQPGGSLRLSCAVSGYTFSMNWVRQAPGKGLEWVAWINMYTGEPTYADDFKGRFTISRDDSKNTLYLQMNSLRAEDTAVYYCARLYRGNSLDYWGQGTLVTVSS VL: DIQMTQSPSSLSASVGDRVTITCKSSQSLLNSGNQKSYLTWYQQKPGKAPKLLIYWASTLESGVPSRFSGSGSGTDYTLTISSLQPEDFATYYCQNSYSFPFTFGQGTKVEIK
Output: 0.0884

Task: State its Kd for this binder: h5C9of (antibody, V domains shown) VH: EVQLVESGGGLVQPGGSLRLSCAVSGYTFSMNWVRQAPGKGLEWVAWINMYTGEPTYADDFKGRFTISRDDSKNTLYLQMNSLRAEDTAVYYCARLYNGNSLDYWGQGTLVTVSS VL: DIQMTQSPSSLSASVGDRVTITCKSSQSLLNSGNQKSYLTWYQQKPGKAPKLLIYWASTLESGVPSRFSGSGSGTDYTLTISSLQPEDFATYYCQNSYSFPFTFGQGTKVEIK
Output: 0.103

Task: State its Kd for this binder: h5C9od (antibody, V domains shown) VH: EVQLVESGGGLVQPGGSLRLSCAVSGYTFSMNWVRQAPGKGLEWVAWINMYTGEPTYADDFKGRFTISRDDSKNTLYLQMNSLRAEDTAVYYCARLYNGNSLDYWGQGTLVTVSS VL: DIQMTQSPSSLSASVGDRVTITCKSSQSLLNSGNQKSYLTWYQQKPGKAPKLLIYWASTLESGVPSRFSGSGSGTDYTLTISSLQPEDFATYYCQNAYWFPFTFGQGTKVEIK
Output: 0.0876

Task: State its Kd for this binder: h5C9oi (antibody, V domains shown) VH: EVQLVESGGGLVQPGGSLRLSCAVSGYTFSMNWVRQAPGKGLEWVAWINMYTGEPTYADDFKGRFTISRDDSKNTLYLQMNSLRAEDTAVYYCARMYNGNSLDYWGQGTLVTVSS VL: DIQMTQSPSSLSASVGDRVTITCKSSQSLLNSGNQKSYLTWYQQKPGKAPKLLIYWASTLESGVPSRFSGSGSGTDYTLTISSLQPEDFATYYCQNSYSFPFTFGQGTKVEIK
Output: 0.0868

Task: State its Kd for this binder: h5C9oh (antibody, V domains shown) VH: EVQLVESGGGLVQPGGSLRLSCAVSGYTFSMNWVRQAPGKGLEWVAWINMYTGEPTYADDFKGRFTISRDDSKNTLYLQMNSLRAEDTAVYYCARLYRGNSLDYWGQGTLVTVSS VL: DIQMTQSPSSLSASVGDRVTITCKSSQSLLNSGNQKSYLTWYQQKPGKAPKLLIYWASTLESGVPSRFSGSGSGTDYTLTISSLQPEDFATYYCQNAYEFPFTFGQGTKVEIK
Output: 0.0802

Task: State its Kd for this binder: Anti-CLDN 18.2-5C9o (humanized antibody h5C9o) (antibody, V domains shown) VH: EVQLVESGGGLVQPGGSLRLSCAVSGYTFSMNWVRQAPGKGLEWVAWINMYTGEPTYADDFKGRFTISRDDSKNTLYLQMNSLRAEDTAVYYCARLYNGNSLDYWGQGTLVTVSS VL: DIQMTQSPSSLSASVGDRVTITCKSSQSLLNSGNQKSYLTWYQQKPGKAPKLLIYWASTLESGVPSRFSGSGSGTDYTLTISSLQPEDFATYYCQNAYSFPFTFGQGTKVEIK
Output: 0.0892

Task: State its Kd for this binder: h5C9oc (antibody, V domains shown) VH: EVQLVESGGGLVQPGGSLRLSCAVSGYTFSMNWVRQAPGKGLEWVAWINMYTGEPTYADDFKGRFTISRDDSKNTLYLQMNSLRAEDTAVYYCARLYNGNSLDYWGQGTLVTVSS VL: DIQMTQSPSSLSASVGDRVTITCKSSQSLLNSGNQKSYLTWYQQKPGKAPKLLIYWASTLESGVPSRFSGSGSGTDYTLTISSLQPEDFATYYCQNGYSFPFTFGQGTKVEIK
Output: 0.0848
